# MEASUREMENT_TARGET: SARS-COV-2 RBD extracellular domain expressed with a C-terminal mouse IgG2a (SARS-COV-2 RBD-mFc) (SARS-CoV-2)
# ASSAY_SUMMARY: SPR, captured mAb, RBD-mFc in solution, 37 C
MEASURED_ATTRIBUTE: pKd
// field semantics: pKd = negative decimal log of concentration (mol/L)

The cases that follow already have their pKd on record.
# BINDER, REPORTED
records = [
    ("mAb10921 (antibody, V domains shown) VH: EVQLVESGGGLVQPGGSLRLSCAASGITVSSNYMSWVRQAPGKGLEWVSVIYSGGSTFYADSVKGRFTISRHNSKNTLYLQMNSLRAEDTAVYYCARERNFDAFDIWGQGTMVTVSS VL: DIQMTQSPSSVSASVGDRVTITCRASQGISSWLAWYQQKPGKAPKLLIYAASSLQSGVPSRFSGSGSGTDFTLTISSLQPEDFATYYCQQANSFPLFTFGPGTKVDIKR", 9.56),
    ("mAb10914 (antibody, V domains shown) VH: EVQLVESGGGLVQPGGSLRLSCAASGLIVSRNYMIWVRQAPGKGLEWVSVIYSGGSTFYADSVKGRFTISRHNSKNTLYLQMNSLRAEDTAVYYCARDLGTGGMDVWGQGTTVTVSS VL: DIQLTQSPSFLSASVGDRVTITCWASQGISSYLAWYQQKPGKAPKLLIYAASTLQSGVPSRFSGSGSGTEFTLTISSLQPEDFATYYCQQLNSYPLTFGGGTKVEIKR", 9.50),
    ("mAb10998 (antibody, V domains shown) VH: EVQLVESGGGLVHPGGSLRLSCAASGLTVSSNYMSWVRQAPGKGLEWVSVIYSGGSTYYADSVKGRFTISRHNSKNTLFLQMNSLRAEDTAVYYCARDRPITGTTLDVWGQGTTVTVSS VL: DIQMTQSPSSLFASVGDRVTITCRASQSISSYLNWYQQKPGKAPKLLIYAASSLQSGVPSRFSGSGSGTDFTLTISSLQPEDFAFYYCQQTYSTPPITFGQGTRLEIKR", 7.65),
    ("mAb10920 (antibody, V domains shown) VH: QVQLVESGGGVVQPGRSLRLSCAASGFTFSYYGMHWVRQAPGKGLEWVAVIWYDGSNKFYADSVKGRFTISRDNSKNTLYLQMNSLRAEDTAVYYCAAARPGYYYGMDVWGQGTTVTVSS VL: DIQMTQSPSSLSASVGDRVTITCRASQGISNYLAWFQQKPGKAPNSLIYAASSLQRGVPSKFSGSGSGTDFTLTISSLQPEDFATYYCQQYNSYPRTFGQGTKVEIKR", 9.92),
]

Consider now this further binder.
q: For the binder shown here, mAb11004 (antibody, V domains shown) VH: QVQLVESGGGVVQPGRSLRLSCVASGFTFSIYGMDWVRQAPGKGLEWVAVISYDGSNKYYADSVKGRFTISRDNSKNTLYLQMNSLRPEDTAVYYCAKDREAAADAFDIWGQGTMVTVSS VL: DIQMTQSPSSVSASVGDRVTITCRASQGISSWLAWYQQKPGKAPKLLIYAASSLHSGVPSRFSGSGSGTDFTLTISSLQPEDFATYYCQQANSFRLTFGGGTKVEIKR , give the reported pKd.
a: 9.93
